Numbers sourced from patent US11987542B2.

# studyTarget: Rat sEH (Rattus norvegicus)
# Sequence (P80299 1-554): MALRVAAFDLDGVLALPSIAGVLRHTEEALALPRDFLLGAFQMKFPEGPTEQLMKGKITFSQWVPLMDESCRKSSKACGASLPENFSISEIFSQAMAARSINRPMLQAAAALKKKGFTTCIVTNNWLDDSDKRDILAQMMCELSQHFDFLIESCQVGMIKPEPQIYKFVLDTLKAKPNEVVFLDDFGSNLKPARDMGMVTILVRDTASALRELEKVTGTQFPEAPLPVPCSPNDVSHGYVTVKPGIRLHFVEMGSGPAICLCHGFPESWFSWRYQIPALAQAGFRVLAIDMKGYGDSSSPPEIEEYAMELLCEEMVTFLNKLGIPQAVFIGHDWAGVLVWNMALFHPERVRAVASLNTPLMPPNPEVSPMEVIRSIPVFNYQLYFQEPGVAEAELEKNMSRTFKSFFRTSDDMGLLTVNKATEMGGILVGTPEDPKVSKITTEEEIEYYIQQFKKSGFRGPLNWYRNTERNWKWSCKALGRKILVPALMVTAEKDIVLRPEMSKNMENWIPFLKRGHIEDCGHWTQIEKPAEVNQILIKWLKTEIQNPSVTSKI
attributeMeasured: pIC50
Reminder that pIC50 is minus the log10 of a molar concentration.

(Q) System Rat sEH (Rattus norvegicus). Read-out pIC50. Item O=C(Nc1ccc(OC(F)(F)F)cc1)N[C@H]1CC[C@H](Oc2ccc(C(=O)O)cc2)CC1 [EC1728] . Report value.
(A) 7.80

* * *

# studyTarget: Sheep sEH (Ovis aries, UniProt A0ACI6PZ20)
# Sequence (A0ACI6PZ20 1-549): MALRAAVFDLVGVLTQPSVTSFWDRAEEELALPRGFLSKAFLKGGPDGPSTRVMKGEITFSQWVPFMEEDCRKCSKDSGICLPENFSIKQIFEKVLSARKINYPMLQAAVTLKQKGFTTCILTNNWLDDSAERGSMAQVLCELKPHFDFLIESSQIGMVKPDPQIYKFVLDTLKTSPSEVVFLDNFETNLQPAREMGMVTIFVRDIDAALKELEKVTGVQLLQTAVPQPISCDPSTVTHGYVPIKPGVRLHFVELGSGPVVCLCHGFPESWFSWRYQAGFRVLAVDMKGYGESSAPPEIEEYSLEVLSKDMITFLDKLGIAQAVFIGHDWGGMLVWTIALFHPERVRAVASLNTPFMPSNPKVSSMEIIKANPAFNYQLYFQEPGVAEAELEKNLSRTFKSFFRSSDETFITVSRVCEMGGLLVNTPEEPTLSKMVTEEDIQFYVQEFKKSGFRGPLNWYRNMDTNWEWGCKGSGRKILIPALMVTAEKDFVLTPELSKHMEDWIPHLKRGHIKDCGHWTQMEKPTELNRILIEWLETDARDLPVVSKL
attributeMeasured: IC50
Record the result as number plus unit.

(Q) Fill in reported IC50 for this entry: O=C(Nc1ccc(OC(F)(F)F)cc1)N[C@H]1CC[C@H](Oc2ccc(C(=O)O)cc2)CC1 [EC1728]
(A) 6 nM
